Where do the numbers come from? From PubChem BioAssay (NCI).

Measured growth inhibition values are reported for all entries that follow.
ASSAY INFO: NCI Yeast Anticancer Drug Screen. Data for the mec2-1 strain (AID 157)
MEASUREMENT PARAMETERS: S. cerevisiae mec2-1 strain, at 50.0 µM (retest, dose inferred, filed as 5.0), stronger effect = higher value
This is part of a sample that, as a whole, favours compounds with a hit. Of some 79,000 tested, about 15% had one in any assay.
READOUT: growth inhibition (%)

> print(dat)
                                    compound            readout  result
 1         Cc1c[n+](CC(=O)c2ccc(I)cc2)c(C)s1  growth inhibition       2
 2        NCCCNCc1c2ccccc2c(CNCCCN)c2ccccc12  growth inhibition      -7
 3  CN(C)CC1CCC/C(=C\c2ccc(Cl)c(Cl)c2)C1=O (stereo unspecified)  growth inhibition      98
 4  CC(C)(C[NH-])C[NH-].[Cl][Pt+2]([Cl])([Cl])[Cl]  growth inhibition      99
 5  CSCS(=O)C[C@H](CO)NC(=O)/C=C/c1c(C)[nH]c(=O)[nH]c1=O (stereo partly specified)  growth inhibition      86
 6     Cc1cc2oc3c(ccc(=O)n3C)c(=O)c2c(C)c1Cl  growth inhibition      23
 7   O=[N+]([O-])/C=C/c1c[nH]c2c1ccc1ccccc12  growth inhibition      90
 8  CCOC(=O)C1=C(N)OC(c2ccccc2)=C(C#N)C1c1ccc(C)cc1 (stereo unspecified)  growth inhibition      91
 9  CN=S(=O)(OCCCCOS(=O)(=NC)c1ccccc1)c1ccccc1 (stereo unspecified)  growth inhibition       8
10              ICCCCCCCCCC[n+]1ccc2ccccc2c1  growth inhibition      99
11         CCCCCCCCCCC(=O)CC(=O)c1c(O)cccc1O  growth inhibition       5

###

ASSAY INFO: NCI Yeast Anticancer Drug Screen. Data for the mlh1 rad18 strain (AID 175)
MEASUREMENT PARAMETERS: S. cerevisiae mlh1 rad18 strain growth inhibition; at 50.0 µM; stronger effect = higher value
This is part of a sample that, as a whole, favours compounds with a hit. Of some 79,000 tested, about 15% had one in any assay.
Measured growth inhibition values are reported for all entries that follow.
READOUT: growth inhibition (%)

> print(dat)
                                    molecule  result
 1  O=C1CN(c2cccc(Cl)c2)C(=O)CN1/N=C/c1ccc[nH]1      99
 2  CS(=O)(=O)c1ccc(C[N+]23CN4CN(CN(C4)C2)C3)cc1    1.85
 3  COC(=O)c1ccc2c(c1)CC1(C2)Cc2ccccc2C1=O (configuration not stated)    79.5
 4  CC1=CC2N(C=C1)C(c1ccccc1)=NON2c1cc(C)ccn1 (configuration not stated)    68.9
 5                  CCCOC(=O)CCCC(=O)N(CC)CC    19.5
 6           CC(C)(C)c1ccc(Br)c(CCC(=O)NO)c1    97.8
 7  CCCCCCCCN(CCCCCCCC)CC(O)c1cc2c(c3ccccc13)CCCC2 (configuration not stated)    98.8
 8          Oc1cc(-[n+]2ccccc2)c(O)c2ccccc12    20.8
 9  C1=CC2C(c3cccc4ccccc34)O[C@H]2O1 (some centres not stated)    98.3
10  COc1ccc(Cc2c(-c3ccc(C)cc3)n[nH]c(=O)c2C2C(=O)N(c3ccccc3)N=C2c2ccccc2)cc1 (configuration not stated)      96
11  OC(Cc1cccnc1)(c1ccccc1)c1ccc(Cl)cc1 (configuration not stated)      98
12         CCOc1ccc2nc3cc(Cl)ccc3[n+](C)c2c1    86.7
